Property: GI50; scope: individual compounds
- Tested on: Prostatic carcinoma cell
- assayExplanation: The compound was tested for its growth inhibitory activity against prostate cancer cell line
- Format: functional
- assayConditions: Homo sapiens
readoutKind: GI50 (µM)

[
  {
    "smilesStructure": "Br.Br.O=C1c2cccc3cccc(c23)C(=O)N1CCCNOCCONCCCN1C(=O)c2cccc3cccc(c23)C1=O",
    "resultValue": 77.5
  },
  {
    "smilesStructure": "Br.Br.Br.Br.O=C1c2cccc3cccc(c23)C(=O)N1CCCNCCCNCCCCNCCCNCCCN1C(=O)c2cccc3cccc(c23)C1=O",
    "resultValue": 3.46
  },
  {
    "smilesStructure": "Br.Br.O=C1c2cccc3cccc(c23)C(=O)N1CCCNCCCCNCCCN1C(=O)c2cccc3cccc(c23)C1=O",
    "resultValue": 0.13
  },
  {
    "smilesStructure": "Br.Br.Br.O=C1c2cccc3cccc(c23)C(=O)N1CCCNCCCCNCCCNCCCN1C(=O)c2cccc3cccc(c23)C1=O",
    "resultValue": 0.46
  }
]

---

- Test system: Breast carcinoma cell
- assayExplanation: The compound was tested for its growth inhibitory activity against breast cancer cell line
- Assay type: functional
- assayConditions: Homo sapiens
Parameter: GI50. Scope: all listed entries.

[
  {
    "smilesStructure": "Br.Br.O=C1c2cccc3cccc(c23)C(=O)N1CCCNCCCCNCCCN1C(=O)c2cccc3cccc(c23)C1=O",
    "testedSystem": "Breast carcinoma cell",
    "GI50 / µM": 2.26
  },
  {
    "smilesStructure": "Br.Br.O=C1c2cccc3cccc(c23)C(=O)N1CCCNOCCONCCCN1C(=O)c2cccc3cccc(c23)C1=O",
    "testedSystem": "Breast carcinoma cell",
    "GI50 / µM": 77.6
  },
  {
    "smilesStructure": "Br.Br.Br.Br.O=C1c2cccc3cccc(c23)C(=O)N1CCCNCCCNCCCCNCCCNCCCN1C(=O)c2cccc3cccc(c23)C1=O",
    "testedSystem": "Breast carcinoma cell",
    "GI50 / µM": 4.49
  },
  {
    "smilesStructure": "Br.Br.Br.O=C1c2cccc3cccc(c23)C(=O)N1CCCNCCCCNCCCNCCCN1C(=O)c2cccc3cccc(c23)C1=O",
    "testedSystem": "Breast carcinoma cell",
    "GI50 / µM": 3.49
  }
]

---

Examples of molecules with documented GI50 follow.
- Test system: CNS carcinoma cell
- assayExplanation: The compound was tested for its growth inhibitory activity against CNS cancer cell line
- Format: functional
- assayConditions: Homo sapiens

[
  {
    "smilesStructure": "Br.Br.Br.Br.O=C1c2cccc3cccc(c23)C(=O)N1CCCNCCCNCCCCNCCCNCCCN1C(=O)c2cccc3cccc(c23)C1=O",
    "testedSystem": "CNS carcinoma cell",
    "GI50, nM": 4070
  },
  {
    "smilesStructure": "Br.Br.O=C1c2cccc3cccc(c23)C(=O)N1CCCNCCCCNCCCN1C(=O)c2cccc3cccc(c23)C1=O",
    "testedSystem": "CNS carcinoma cell",
    "GI50, nM": 290
  },
  {
    "smilesStructure": "Br.Br.Br.O=C1c2cccc3cccc(c23)C(=O)N1CCCNCCCCNCCCNCCCN1C(=O)c2cccc3cccc(c23)C1=O",
    "testedSystem": "CNS carcinoma cell",
    "GI50, nM": 1160
  },
  {
    "smilesStructure": "Br.Br.O=C1c2cccc3cccc(c23)C(=O)N1CCCNOCCONCCCN1C(=O)c2cccc3cccc(c23)C1=O",
    "testedSystem": "CNS carcinoma cell",
    "GI50, nM": 65900
  }
]
